system: COS-7; experiment: Fraction of total radioactivity [86Rb] remaining with the compound at a concentration of 10 uM in COS-7 cells; type: functional, Cercopithecidae
REPORTED PROPERTY: Fraction of accumulated 86Rb remaining.
Numbers only.

These recorded examples may help you get a feel for the data.
COMPOUND	Fraction of accumulated 86Rb remaining.
Nc1ccc(C2(c3ccc(N)cc3)c3ccccc3-c3ccccc32)cc1	0.419
O=C1OC(c2ccc(O)cc2)(c2ccc(O)cc2)c2ccccc21 [PHENOLPHTHALEIN]	0.091
Oc1ccc(Cc2ccc(O)cc2)cc1	0.581
Oc1ccc(C2(c3ccc(O)cc3)c3ccccc3-c3ccccc32)cc1	0.003
OCCOc1ccc(C2(c3ccc(OCCO)cc3)c3ccccc3-c3ccccc32)cc1	0.486

Below: the item to evaluate.
Just so you know, measured Fraction of accumulated 86Rb remaining. for `Oc1ccc2ccccc2c1-c1c(O)ccc2ccccc12` came out at 0.565
